Source: paper PMC4402530

Molecular target: BLM642-1290 S1121A (human, UniProt P54132 642-1290, S1121A)
Sequence (P54132 642-1290 S1121A): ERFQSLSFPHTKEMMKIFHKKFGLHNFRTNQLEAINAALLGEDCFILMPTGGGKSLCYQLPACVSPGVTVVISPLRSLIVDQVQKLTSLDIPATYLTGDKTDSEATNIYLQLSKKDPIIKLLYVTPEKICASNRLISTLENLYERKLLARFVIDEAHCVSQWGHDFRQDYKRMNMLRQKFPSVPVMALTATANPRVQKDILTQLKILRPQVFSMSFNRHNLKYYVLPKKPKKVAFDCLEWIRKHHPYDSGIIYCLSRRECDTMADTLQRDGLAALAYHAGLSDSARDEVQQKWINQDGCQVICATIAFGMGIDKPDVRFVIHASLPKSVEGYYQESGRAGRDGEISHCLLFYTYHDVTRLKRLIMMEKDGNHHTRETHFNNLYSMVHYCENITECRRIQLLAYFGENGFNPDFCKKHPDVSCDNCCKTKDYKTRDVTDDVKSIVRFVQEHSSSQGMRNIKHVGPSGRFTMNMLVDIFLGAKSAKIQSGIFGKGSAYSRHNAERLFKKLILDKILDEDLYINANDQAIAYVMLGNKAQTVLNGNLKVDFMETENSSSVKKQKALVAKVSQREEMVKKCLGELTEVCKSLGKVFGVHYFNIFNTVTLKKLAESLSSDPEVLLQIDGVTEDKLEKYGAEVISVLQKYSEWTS
Experiment: fluorescence anisotropy; 1 mM MgCl2, no ATP listed; 25 mM Tris-HCl pH 7.5 (last digit split in text), 100 mM NaCl, 1 mM MgCl2, 3 mM DTT, 5 nM DNA, 25 C, 5 min equilibration; Hill fit
Settings: protein: recombinant; label: 3' fluorescein
Measured Parameter: Kd (nM)
Kindly provide the numeric value in nM only, without the unit symbol.

Recorded result, GCCTCGCTGCCGTCGCCA (ssDNA) [F18 ssDNA (18 nt)] , Kd: 27.1
